Source listed as ChEMBL document CHEMBL1155993.

Here the recorded MIC is given for each entry.
Test system: Staphylococcus aureus
ASSAY_NOTES: Antibacterial activity against methicillin resistant Staphylococcus aureus SA-1417 by NCCLS method
Assay type: functional
Give just the numeric value; µg/mL need not be written.

Reference set, count: 3
{"columns": ["GIVEN_SMILES", "MEASURED_NUMBER"],
 "data": [
  ["CCNC(=O)Nc1cn2c(-c3nccc(C4CC4)n3)cc(-c3cccnc3)cc2n1", 0.5],
  ["CCNC(=O)Nc1cn2c(-c3ncc(C)cn3)cc(-c3cncnc3)cc2n1", 1],
  ["CCNC(=O)Nc1cn2c(-c3ncc(C)cn3)cc(-c3ccc(OC)nc3)cc2n1", 2]
]}

Query compound follows.
Answer with the recorded MIC for the compound listed here: "CCNC(=O)Nc1cn2c(-c3ncc(C)cn3)cc(-c3ccn(CCF)c(=O)c3)cc2n1" 1
